target: Mitogen-activated protein kinase 14 (Homo sapiens); assay: Inhibition of LPS-stimulated TNFalpha production in human THP1 cells
Sequence (Q16539 whole entry): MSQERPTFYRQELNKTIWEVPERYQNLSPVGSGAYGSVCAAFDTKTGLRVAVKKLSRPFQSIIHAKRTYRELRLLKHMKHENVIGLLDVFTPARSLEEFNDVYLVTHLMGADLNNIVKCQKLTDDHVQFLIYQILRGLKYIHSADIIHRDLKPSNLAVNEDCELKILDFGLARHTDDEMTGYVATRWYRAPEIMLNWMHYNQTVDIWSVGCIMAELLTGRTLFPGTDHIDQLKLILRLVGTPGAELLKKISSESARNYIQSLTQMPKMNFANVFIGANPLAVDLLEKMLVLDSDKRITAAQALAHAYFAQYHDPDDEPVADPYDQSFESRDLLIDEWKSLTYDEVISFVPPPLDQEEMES
Measured metric: IC50 (nM)

{"columns": ["Structure smiles", "IC50 / nM"],
 "data": [
  ["COC[C@H](C)Nc1nccc(N(C(=O)Nc2ccccc2C)c2ccc(F)cc2)n1", 3650]
]}

(I) C[C@H](Nc1nccc(N(C(=O)Nc2ccccc2Cl)c2ccccc2)n1)C(C)(C)O
(II) COC[C@H](C)Nc1nccc(N(C(=O)Nc2ccccc2Cl)c2ccc(F)cc2)n1
# input # argmax over IC50 for candidates I and II Field: selected label. Fill in the label of the entry you choose.
# output II
(II: 3100 nM, I: 718 nM)
